Compiled literature pIC50, tested on Receptor tyrosine-protein kinase erbB-2 (Homo sapiens, UniProt P04626).
pIC50: −log10 of the molar value.

Completed entries (count: 2):
# givenSmiles, pIC50
data = [
    ("CN(C/C=C/C(=O)N1CCOc2c1ccc1ncnc(Nc3ccc(OCc4ccccn4)c(Cl)c3)c21)C1CC1", "≥ 7.30"),
    ("Cc1ccc(F)c(Oc2ccc(Nc3ncnc4ccc5c(c34)OCCN5C(=O)/C=C/CN(C)C)cc2)c1", "≥ 7.30"),
]

QUERY: Which measured pIC50 belongs to "CN(c1cccc(Cl)c1)c1ncnc(Nc2ccc(S(C)(=O)=O)cc2)n1" , tested on Receptor tyrosine-protein kinase erbB-2 (Homo sapiens, UniProt P04626)?
RESULT: 5.21 to 5.99

QUERY: Entry to check: "COC(=O)Cc1cccc(Nc2ncnc(-n3c(NCc4ccccn4)nc4ccccc43)n2)c1"
RESULT: < 5.02

QUERY: Entry to check: "CS(=O)(=O)CCNC(=O)NCC#Cc1cc2c(Nc3ccc(OCc4cccc(F)c4)c(Cl)c3)ncnc2s1"
RESULT: > 7.50

QUERY: Entry to check: "CC(C)c1nc(-c2cccc(NS(=O)(=O)c3cn(C)nc3C(F)(F)F)c2)c(-c2ccnc(Nc3ccc(N4CCOCC4)nc3)n2)s1"
RESULT: < 6.00

QUERY: Entry to check: "C=CC(=O)N1CCOc2c1ccc1ncnc(Nc3ccc(Oc4cccnc4)cc3)c21"
RESULT: ≥ 7.30

QUERY: Entry to check: "CCNc1nc(-c2cc(OC)cc(OC)c2)c(-c2ccnc(Nc3ccc(N4CCN5CCOC[C@H]5C4)nc3)n2)o1"
RESULT: < 6.00
